Test system: P. aeruginosa PAO1 biofilm
Assay: Pellicle biofilm assay, % survival of biofilm cells
Assay type: cell-based
Settings: biofilm challenged with 30 µM compound, 24 h
Answer each item with its documented % Survival Biofilm, P. aeruginosa PAO1.
One number for each entry, in %.

Illustrative cases are given below, each with its answer.
| COMPOUND | VALUE OBSERVED |
| --- | --- |
| CC(C)(C)c1ccc(O)c(CNc2cccc3c2C(=O)NC3=O)c1 [SB-16-53] | 48 |
| O=C1NC(=O)c2c(NCc3cccc(Br)c3O)cccc21 [EB-5-73] | 78 |
| Cc1cc(Br)cc(CNc2cccc3c2C(=O)NC3=O)c1O [SB-16-106] | 42 |

Please go through the list and note % Survival Biofilm, P. aeruginosa PAO1 for each compound.
1. O=C1NC(=O)c2c(NCc3cc(Br)c(F)cc3O)cccc21 [SB-16-112]
2. Cc1cc(Cl)cc(CNc2cccc3c2C(=O)NC3=O)c1O [SB-16-156]

Response:
1. 15
2. 44

* * *

Target: recombinant Pa BfrB (Pseudomonas aeruginosa)
Sequence (Q9HY79 whole entry): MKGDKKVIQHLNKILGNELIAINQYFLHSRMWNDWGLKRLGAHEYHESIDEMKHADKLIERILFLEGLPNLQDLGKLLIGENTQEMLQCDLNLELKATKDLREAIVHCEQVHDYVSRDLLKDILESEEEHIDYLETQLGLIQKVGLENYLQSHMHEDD
Assay: Dissociation constant (Kd), fluorescence quenching titration of apo Pa BfrB
Under this convention, Yes denotes Kd strictly below 20 µM and No denotes Kd at or above 20 µM.

Field: example entries. Status: answers known.
| COMPOUND | ASSIGNED LABEL |
| --- | --- |
| O=C1NC(=O)c2c(NCc3c(O)cccc3Cl)cccc21 | Yes |
| O=C1NC(=O)c2c(NCc3cc(Cl)cc(O)c3O)cccc21 | Yes |

Request: Strictly below 20 µM in Kd? O=C1NC(=O)c2c(NCc3cc(Br)cc(O)c3O)ccc(Br)c21
Response: Yes

Request: Does Cc1cc(Br)cc(CNc2cccc3c2C(=O)NC3=O)c1O have Kd strictly under 20 µM?
Response: Yes

Request: For this compound, is Kd lower than 20 µM? Cc1ccc(CNc2cccc3c2C(=O)NC3=O)c(O)c1
Response: No

* * *

System: P. aeruginosa PAO1
Experiment: Compound intracellular accumulation in P. aeruginosa PAO1
Format: cell-based
Conditions: ‡ treatment with 15 µM compound
Rule: Intracell. Accum, P. aeruginosa PAO1 of 400 nmol/1012 CFU or more gives MET; anything lower gives NOT MET.

Please review the entries below; each comes with its answer.
| COMPOUND | ASSIGNED LABEL |
| --- | --- |
| Cc1cc(CNc2cccc3c2C(=O)NC3=O)c(O)cc1Br | NOT MET |
| O=C1NC(=O)c2c(NCc3cc(Br)c(F)cc3O)cccc21 | MET |
| O=C1NC(=O)c2c(NCc3cc(Cl)ccc3O)ccc(Br)c21 | MET |
| Cc1cc(Br)cc(CNc2cccc3c2C(=O)NC3=O)c1O | MET |
| CC(C)(C)c1ccc(O)c(CNc2cccc3c2C(=O)NC3=O)c1 | NOT MET |
| Cc1cc(Cl)cc(CNc2cccc3c2C(=O)NC3=O)c1O | NOT MET |

Consider now this further molecule.
Request: State whether the measured Intracell. Accum, P. aeruginosa PAO1 reaches 400 nmol/1012 CFU, counting equality as reaching it, for O=C1NC(=O)c2c(NCc3cc(Br)ccc3O)ccc(Cl)c21
Response: MET

* * *

Molecular target: recombinant Pa BfrB (Pseudomonas aeruginosa)
Experiment: Dissociation constant (Kd), fluorescence quenching titration of apo Pa BfrB
Text: Measurement of Dissociation Constant (Kd) R ecombinant Pa BfrB was expressed in E. coli and purified as previously reported.19 Apo-BfrB (devoid of heme) was utilized for the measurements to prevent heme-driven fluorescence quenching. […] The fluorescence quenching brought by the addition of each aliquot was monitored with the aid of an Agilent Cary Fluorometer , with excitation at 280 nm, emission at 320- 470 nm, 10 x10 nm slit width, and an average of 5 scans per spectrum. […]
The label Met is reserved for Kd strictly under 7 µM; Not met covers values equal to or above it.

| COMPOUND | TARGET OR TEST SYSTEM | ASSIGNED LABEL |
| --- | --- | --- |
| O=C1NC(=O)c2c(NCC3CCOCC3)cccc21 | recombinant Pa BfrB (Pseudomonas aeruginosa) | Not met |
| O=C1NC(=O)c2c(NCc3cc(Br)c(O)cc3O)cccc21 | recombinant Pa BfrB (Pseudomonas aeruginosa) | Not met |
| O=C1NC(=O)c2c(NCc3c(O)cccc3F)cccc21 | recombinant Pa BfrB (Pseudomonas aeruginosa) | Not met |
| Cc1ccc(O)c(CNc2ccc(Br)c3c2C(=O)NC3=O)c1 | recombinant Pa BfrB (Pseudomonas aeruginosa) | Met |
| O=C1NC(=O)c2c(NCc3cc(Br)ccc3O)ccc(Cl)c21 | recombinant Pa BfrB (Pseudomonas aeruginosa) | Not met |
| Cc1cc(CNc2cccc3c2C(=O)NC3=O)c(O)cc1Br | recombinant Pa BfrB (Pseudomonas aeruginosa) | Met |
| Cc1cccc(CNc2cccc3c2C(=O)NC3=O)c1O | recombinant Pa BfrB (Pseudomonas aeruginosa) | Not met |

Here is another molecule to look at.
Request: Confirm or reject: Kd of Cn1ccnc1CNc1cccc2c1C(=O)NC2=O lies strictly below 7 µM
Response: Not met

Hello, the source for this data is paper PMC12261321, in case you need it.
